Experiment: PSAC antagonists in infected red cells, primary screen, cell-based, P. falciparum Indochina, OD700, 18 h (AID 1157)
Conditions: P. falciparum Indochina infected erythrocytes, osmotic lysis OD700, 18 h; higher = more signal, called active from +8 up or from −8 down
OBSERVABLE: z-score
Lab note: jot down the number only; don't add units.

Inquiry: Return reported z-score; argument: C=CCNC(=O)[C@H]1[C@@H]2C(=O)O[C@@H](c3ccccc3)[C@@H](c3ccccc3)N2[C@@H](c2ccc(O)cc2)[C@]12C(=O)N(C(=O)OCCOC)c1ccc(C#CCC(C(=O)OC)C(=O)OC)cc12
Reply text: 0.516

Inquiry: Return reported z-score; argument: O=C1C2C=CC(C(O)c3ccco3)N(Nc3ccccc3)C2C(=O)N1c1ccccc1 (stereo not given)
Reply text: 0.851

Inquiry: Return reported z-score; argument: CCOC(=O)C[C@H]1[C@H](OC(=O)c2ccc(C(=O)c3ccccc3)cc2)[C@@H](NC(=O)CC(C)C)c2cc(OCCCO)ccc2N1C(=O)Cc1ccc(OC)cc1
Reply text: 0.0625

Inquiry: Return reported z-score; argument: COc1cc(NN2C(C(O)c3ccccc3)C=CC3C(=O)N(C)C(=O)C32)cc(OC)c1OC (stereo not given)
Reply text: -0.447

Inquiry: Return reported z-score; argument: CC(C)[C@H]1NC(=O)[C@@]23C(=O)N[C@@H](Cc4ccccc4)C2[C@H](C)[C@@]2(C)O[C@H]2C3/C=C/C/C=C\CNC(=O)[C@H](Cc2ccccc2)NC1=O (stereo not given in full)
Reply text: 0.476

Inquiry: Return reported z-score; argument: [N-]=[N+]=NCc1ccccc1[C@@H]1OC(c2ccc(OCCCO)cc2)=N[C@]1(Cc1ccccc1N=[N+]=[N-])C(=O)N1CCCCC1
Reply text: 0.86

Inquiry: Return reported z-score; argument: Cc1ccc(F)cc1S(=O)(=O)N[C@@H]1CCN(Cc2cccc3[nH]ccc23)C1
Reply text: 0.451

Inquiry: Return reported z-score; argument: Cc1ccc(S[C@]2(C(=O)NC(C)C)CC(=O)N(C(C)C)[C@@H]2c2ccc(CO)cc2I)cc1
Reply text: 0.397

Inquiry: Return reported z-score; argument: O=C(NCC(O)CO)[C@@]1(CCS(=O)(=O)c2ccccc2)COC(c2ccc(OCCCO)cc2)=N1 (stereo not given in full)
Reply text: 2.91

Inquiry: Return reported z-score; argument: CCCNC(=O)[C@@]1(C)c2ccccc2C(=O)N(Cc2ccccc2)[C@H]1c1ccc(CO)cc1
Reply text: 0.157

Inquiry: Return reported z-score; argument: C=C(C)C1CCC(C(O)C2C=CC3C(=O)N(C)C(=O)C3N2Nc2cc(OC)c(OC)c(OC)c2)CC1 (stereo not given)
Reply text: 0.901

Inquiry: Return reported z-score; argument: CC(C)CNC(=O)[C@@H]1c2ccccc2C(=O)N(C2CCCCC2)[C@H]1c1ccc(CO)cc1
Reply text: -0.288

Inquiry: Return reported z-score; argument: C=C(C)[C@@H]1CC=C(C(O)C2C=CC3C(=O)N(c4ccccc4)C(=O)C3N2Nc2ccc(C#N)cc2)CC1 (stereo not given in full)
Reply text: 2.49

Inquiry: Return reported z-score; argument: C=CCC(OC(C)=O)[C@@H]1[C@@H](N(Cc2ccc(-c3ccccc3)cc2)C(=O)c2ccc(C)cc2)c2cc(OCCCO)ccc2N1C(=O)Cc1ccc2ccccc2c1 (stereo not given in full)
Reply text: -0.938

Inquiry: Return reported z-score; argument: C=C(COC)/C(=C/C[C@@H](OC(C)=O)c1ccc(CO)o1)c1cc(C(=O)OC)ccc1OC
Reply text: 0.0621

Inquiry: Return reported z-score; argument: Cc1ccc(S[C@]2(C(=O)NCc3ccccc3)CC(=O)N(Cc3cc(C(F)(F)F)cc(C(F)(F)F)c3)[C@@H]2c2ccc(CO)cc2I)cc1
Reply text: 0.598

Inquiry: Return reported z-score; argument: CC(C)C[C@@H]1NC(=O)[C@@]23C(=O)N[C@@H](Cc4ccccc4)C2[C@H](C)[C@@]2(C)O[C@H]2C3/C=C/C/C=C\CNC(=O)[C@@H](C)NC1=O (stereo not given in full)
Reply text: -0.967

Inquiry: Return reported z-score; argument: CC(C)=CCCC(C)=CC(O)C1C=CC2C(=O)N(c3ccccc3)C(=O)C2N1Nc1ccccc1F (stereo not given)
Reply text: -0.789

Inquiry: Return reported z-score; argument: Cc1ccc(S[C@]2(C(=O)NC(C)C)CC(=O)N(Cc3ccccc3Cl)[C@@H]2c2ccc(CO)cc2)cc1
Reply text: 0.253

Inquiry: Return reported z-score; argument: CCCCC(=O)N(CCN1CCOCC1)[C@@H]1CC(C(=O)NCCO)=C[C@H](Oc2c(I)cc(CO)cc2OC)[C@H]1O
Reply text: 0.133

Inquiry: Return reported z-score; argument: [N-]=[N+]=Nc1ccccc1[C@@H]1OC(c2ccc(OCCCO)cc2)=N[C@]1(Cc1ccccc1)C(=O)NCc1ccccc1
Reply text: 7.04

Inquiry: Return reported z-score; argument: COC(=O)C1=CC(CCCO)=CC(c2ccc(CN3CCCC3)cc2)N(Cc2cc3c(cc2Br)OCO3)C=C1C(=O)OC (stereo not given)
Reply text: 0.082

Inquiry: Return reported z-score; argument: COCC(=C=CC[C@@H](O)c1ccc(OCCO)cc1)CCO
Reply text: 0.381

Inquiry: Return reported z-score; argument: Cc1ccc(N2C(=O)c3ccccc3[C@](C)(C(=O)NCc3ccccc3)[C@@H]2c2ccc(CO)cc2)nc1
Reply text: 0.305

Inquiry: Return reported z-score; argument: C[C@]1(C(=O)NCC(F)(F)F)c2ccccc2C(=O)N(Cc2ccccc2)[C@H]1c1ccc(CO)cc1
Reply text: -0.162

Inquiry: Return reported z-score; argument: CN1C=C(C(=O)OCCS(C)(=O)=O)C(C(=O)OCCS(C)(=O)=O)=CC(c2ccc(CO)cc2)=CC1c1cccs1 (stereo not given)
Reply text: 0.969

Inquiry: Return reported z-score; argument: COC(=O)[C@@]1(Cc2ccc(F)cc2)[C@H]2c3cc(C(=O)N(C)C)n(Cc4ccc(O)c(OC)c4)c3C[C@H]2CN1C(=O)c1ccccc1
Reply text: -1.74

Inquiry: Return reported z-score; argument: O=C(NCCN1CCOCC1)[C@@H]1c2ccccc2C(=O)N(Cc2ccccc2)[C@H]1c1ccc(CO)cc1
Reply text: -0.0161

Inquiry: Return reported z-score; argument: C=C(COC)C(=O)CC[C@@H](OC(=O)c1cccnc1)c1ccccc1OCCO
Reply text: 0.65

Inquiry: Return reported z-score; argument: COCCOC(=O)N1C(=O)[C@@]2(c3cc(C#Cc4ccc(OC)cc4)ccc31)[C@H](c1ccc(OCCO)cc1)N1[C@H](c3ccccc3)[C@H](c3ccccc3)OC(=O)[C@H]1[C@@H]2C(=O)Nc1nc2ccccc2s1
Reply text: 2.13
